Origin of measurements: ChEMBL document CHEMBL1147957

Molecular target: D(2) dopamine receptor (Homo sapiens) (UniProt P14416)
Sequence (P14416 whole entry): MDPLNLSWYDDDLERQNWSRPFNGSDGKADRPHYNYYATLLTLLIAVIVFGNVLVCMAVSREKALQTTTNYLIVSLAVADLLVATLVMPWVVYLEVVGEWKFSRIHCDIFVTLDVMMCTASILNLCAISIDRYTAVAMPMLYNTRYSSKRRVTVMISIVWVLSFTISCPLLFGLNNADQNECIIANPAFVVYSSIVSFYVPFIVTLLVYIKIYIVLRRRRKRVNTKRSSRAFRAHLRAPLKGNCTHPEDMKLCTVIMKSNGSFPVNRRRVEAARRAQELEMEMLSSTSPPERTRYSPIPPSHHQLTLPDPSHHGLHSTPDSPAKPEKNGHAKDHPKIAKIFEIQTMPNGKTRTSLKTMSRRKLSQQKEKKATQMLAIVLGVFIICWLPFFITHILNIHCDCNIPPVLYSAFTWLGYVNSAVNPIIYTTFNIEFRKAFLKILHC
Assay: Displacement of [3H]YM091512 from dopamine D2 receptor at 10 uM
measured_metric: Activity (%)
Give the quantity in %, number only.

>  <molecule>
CC1CN(CCCN2c3ccccc3Sc3ccc(C(F)(F)F)cc32)CC(C)O1 (stereo not given)

>  <experimental_system>
D(2) dopamine receptor (Homo sapiens) (UniProt P14416)

>  <measured_metric>
Activity

>  <test_result>
99

$$$$

Query: Report Activity for "FC(F)(F)c1ccc2c(c1)N(CCCNc1cccc(Oc3ccccc3)c1)c1ccccc1S2" tested on D(2) dopamine receptor (Homo sapiens) (UniProt P14416).
Response: 0

Query: State its Activity on D(2) dopamine receptor (Homo sapiens) (UniProt P14416): CN1CCCC(CN2c3ccccc3Sc3ccc(C(F)(F)F)cc32)C1 (stereo not given)
Response: 87

Query: Fill in the recorded Activity for this molecule, with D(2) dopamine receptor (Homo sapiens) (UniProt P14416) as test system: CN(C)CCCN1c2ccccc2Sc2ccc(Cl)cc21.Cl [CHLORPROMAZINE HYDROCHLORIDE]
Response: 96

Query: What Activity appears in the records for this molecule with D(2) dopamine receptor (Homo sapiens) (UniProt P14416)? Cc1ccc2c(c1)Sc1ccccc1N2CC1CCCN(C)C1 (stereo not given)
Response: 93

Query: Activity of "CN(Cc1ccccc1)Cc1ccc(CN2c3ccccc3Sc3ccc(C(F)(F)F)cc32)cc1" on D(2) dopamine receptor (Homo sapiens) (UniProt P14416)?
Response: 66

Query: Find the measured Activity: item "FC(F)(F)c1ccc2c(c1)N(Cc1ccc(CNc3nccs3)cc1)c1ccccc1S2" , target or system D(2) dopamine receptor (Homo sapiens) (UniProt P14416).
Response: 11

Query: Give the reported Activity for "CCN(CC)CCCN1c2ccccc2Sc2ccc(C(F)(F)F)cc21" (system: D(2) dopamine receptor (Homo sapiens) (UniProt P14416)).
Response: 100

Query: Form: Entry = "FC(F)(F)c1ccc2c(c1)N(Cc1ccc(CNc3ccccn3)cc1)c1ccccc1S2" | System = D(2) dopamine receptor (Homo sapiens) (UniProt P14416) | Activity = ____
Response: 90

Query: Request - read-out Activity | tested on D(2) dopamine receptor (Homo sapiens) (UniProt P14416) | molecule OC1CCN(Cc2ccc(CN3c4ccccc4Sc4ccc(C(F)(F)F)cc43)cc2)C1 (stereo not given)
Response: 79
